SYSTEM TESTED: T1, Foxp3-7 peptide/HLA-A*02:01 complex on the cell surface (human)
T1 construct: also called Foxp3-7/HLA-A2 complex
METHOD: flow cytometry, phage on peptide-loaded T2 cells
MEASURED METRIC: MFI
Answer field: number only, no words.

EXT017-32 scFv phage clone (scFv, also called EXT017-32 phage; phage clone #32) scFv: QSVLTQPPSVSVAPGKTARITCGGNNIGSKSVHWYQQKPGQAPVLVIYYDSDRPSGIPERFSGSNSGNTATLTISRVEAGDEADYYCQVWDSSSDHYVFGTGTKVTVLGSRGGGGSGGGGSGGGGSLEMAEVQLVESGGGVVQPGRSLRLSCAASGFTFNNHAMHWVRQAPGKGLEWVAVISFDGDDKFYADSVKGRFTISRDNSRNTLFLQMNNLRPEDTAVYYCSRDPYHFASGSYSYFDYWGQGTLVTVSSTSGQAGQHHHHHHGAYPYDVPDYAS: 27500

Attention now shifts to the item below.
Problem: Form field: reported MFI of EXT017-54 scFv phage clone (scFv, full-length scFv with His+HA tags; also called EXT017-54 phage) scFv: QAVLTQPPSLSGGPRQRVTISCSGSTSNIGKNGVSWYQQLPGKAPKLLIYNDHLLSSGVSDRFSGSKSGTSASLAISGLQSDDEADYYCATWDDTLDLPLFGGGTKVTVLGSRGGGGSGGGGSGGGGSLEMAQMQLVQSGAEVEKPGASVKLSCKASGGTFSSYAISWVRQAPGQGLEWMGGIIPIFGTANYAQKFQGRVTITADESTSTAYMELSSLRSEDTAVYYCARPSYYSIKSAWDHWGQGTLVTVSSTSGQAGQHHHHHHGAYPYDVPDYAS
Solution: 30400
